Consider the following compounds; for each one, report its EC90.
System: 3TC-resistant (xxBRU 184V) HIV-1
Assay: HIV-1 Q-RT-PCR assay in human PBM cells, strain xxBRU 184V
Format: cell-based
Settings: human PBM cells, 5 days, viral RNA reduced by 90%; read-out: Q-RT-PCR HIV-1 assay 184V EC90
Procedure: Human PBM cells (1×10^6 cells/T25 flask) were PHA stimulated for 2 or 3 days, and infected with either a wild type (LAI and xxBRU) or a 3TC-resistant (xxBRU 184V) HIV-1 strain at 100 TCID50, as previously described (27). […] A total of 5 μL RNA was RT-amplified using reagents and conditions as described by the manufacturer (Applied Biosystems). […] Therefore, the currently designed primer and probe set allowed reliable quantification of both clinical samples and HIV-1 in vitro preparations. […]
Answers are plain numbers, in µM.

Compound	Target under test	Measure unit	EC90
Nc1ccn([C@@H]2S[C@H](CO)C=C2F)c(=O)n1	3TC-resistant (xxBRU 184V) HIV-1	µM	65.8
Nc1nc(=O)n([C@H]2C=C[C@@H](CO)O2)cc1F [D-D4FC, reference compound]	3TC-resistant (xxBRU 184V) HIV-1	µM	0.21

Please look at the following compound next.
Please supply the value of reported EC90 for the item Nc1ccn([C@@H]2C=C(F)[C@H](CO)O2)c(=O)n1
68.4

====

Consider the following compounds; for each one, report its pIC50.
test system: HepG2; assay: Toxicity assay (MTS/MTT dye), HepG2 cells; conditions: read-out: Cytotoxicity HepG2 IC50; HepG2, three day-incubation (Table 3)
pIC50: −log10 of the molar value.

// below: answered compounds
Compound	pIC50
Nc1nc(=O)n([C@H]2S[C@@H](CO)C=C2F)cc1F	< 4.00
Nc1ccn([C@H]2S[C@@H](CO)C=C2F)c(=O)n1	< 4.00
Nc1nc(=O)n([C@@H]2S[C@H](CO)C=C2F)cc1F	< 4.00

I have 3 compounds here; please give me pIC50 for each one.
1. Nc1nc(=O)n([C@H]2C=C[C@@H](CO)O2)cc1F [D-D4FC, reference compound]
2. Nc1ccn([C@@H]2S[C@H](CO)C=C2F)c(=O)n1
3. Nc1ccn([C@@H]2C=C(F)[C@H](CO)O2)c(=O)n1

1: < 4.00; 2: < 4.00; 3: < 4.00

====

tested on: HIV-1LAI; assay: HIV assay in human PBM cells (RT activity of supernatant); assay type: cell-based; conditions: 5 days, read-out: Anti-HIV-1 Activity (EC50)
pEC50: −log10 of the molar value.
Classification field: enter T for pEC50 values not below 5, F for values below it.

Identify whether the reported pEC50 of the following molecule is 5 or greater: Cc1cn([C@H]2S[C@@H](CO)C=C2F)c(=O)[nH]c1=O
F

Identify whether the reported pEC50 of the following molecule is 5 or greater: Nc1ccn([C@@H]2S[C@H](CO)C=C2F)c(=O)n1
T

Identify whether the reported pEC50 of the following molecule is 5 or greater: Nc1nc2c(ncn2[C@@H]2S[C@H](CO)C=C2F)c(=O)[nH]1
F

Identify whether the reported pEC50 of the following molecule is 5 or greater: Nc1nc(F)nc2c1ncn2[C@@H]1S[C@H](CO)C=C1F
T

Identify whether the reported pEC50 of the following molecule is 5 or greater: O=c1ccn([C@H]2S[C@@H](CO)C=C2F)c(=O)[nH]1
F

Identify whether the reported pEC50 of the following molecule is 5 or greater: Nc1ncnc2c1ncn2[C@H]1S[C@@H](CO)C=C1F
T

Identify whether the reported pEC50 of the following molecule is 5 or greater: Nc1nc(=O)n([C@H]2S[C@@H](CO)C=C2F)cc1F
T

Identify whether the reported pEC50 of the following molecule is 5 or greater: O=c1[nH]cnc2c1ncn2[C@H]1S[C@@H](CO)C=C1F
F

Identify whether the reported pEC50 of the following molecule is 5 or greater: O=c1[nH]cnc2c1ncn2[C@@H]1S[C@H](CO)C=C1F
F

====

tested on: human PBM cells; experiment: Toxicity assay (MTS/MTT dye), human PBM cells; details: read-out: Cytotoxicity PBM IC50; human PBM cells, 5 days incubation
Consider the following compounds; for each one, report its IC50.

Compound	IC50
Nc1nc(=O)n([C@H]2C=C[C@@H](CO)O2)cc1F [D-D4FC, reference compound]	80 µM
Nc1nc(=O)n([C@@H]2S[C@H](CO)C=C2F)cc1F	> 100 µM

I have 2 compounds here; please give me IC50 for each one.
1. Nc1ccn([C@@H]2C=C(F)[C@H](CO)O2)c(=O)n1
2. Nc1ccn([C@@H]2S[C@H](CO)C=C2F)c(=O)n1

87 µM
> 100 µM

I have 2 compounds here; please give me IC50 for each one.
1. Nc1ccn([C@H]2S[C@@H](CO)C=C2F)c(=O)n1
2. Nc1nc(=O)n([C@H]2S[C@@H](CO)C=C2F)cc1F

> 100 µM
> 100 µM

====

tested on: human PBM cells; assay: in vitro; format: cell-based
Consider the following molecules; for each one, report its IC50.

Cc1cn([C@H]2S[C@@H](CO)C=C2F)c(=O)[nH]c1=O > 100 µM

I have 2 molecules here; please give me IC50 for each one.
1. Nc1nc(=O)n([C@H]2S[C@@H](CO)C=C2F)cc1F
2. Nc1ncnc2c1ncn2[C@@H]1S[C@H](CO)C=C1F

1: > 100 µM; 2: > 100 µM

I have 5 molecules here; please give me IC50 for each one.
1. Nc1nc(=O)n([C@@H]2S[C@H](CO)C=C2F)cc1F
2. Nc1ccn([C@H]2S[C@@H](CO)C=C2F)c(=O)n1
3. O=c1[nH]cnc2c1ncn2[C@@H]1S[C@H](CO)C=C1F
4. O=c1ccn([C@H]2S[C@@H](CO)C=C2F)c(=O)[nH]1
5. Nc1nc(F)nc2c1ncn2[C@@H]1S[C@H](CO)C=C1F

> 100 µM
> 100 µM
> 100 µM
> 100 µM
1.5 µM

I have 5 molecules here; please give me IC50 for each one.
1. Nc1nc2c(ncn2[C@H]2S[C@@H](CO)C=C2F)c(=O)[nH]1
2. Nc1ncnc2c1ncn2[C@H]1S[C@@H](CO)C=C1F
3. Nc1ccn([C@@H]2S[C@H](CO)C=C2F)c(=O)n1
4. O=c1[nH]cnc2c1ncn2[C@H]1S[C@@H](CO)C=C1F
5. Nc1nc2c(ncn2[C@@H]2S[C@H](CO)C=C2F)c(=O)[nH]1

1: 13 µM; 2: > 100 µM; 3: > 100 µM; 4: > 100 µM; 5: > 100 µM

====

system: mitochondrial cytochrome C oxidase subunit II (COXII) gene; assay type: cell-based, human; conditions: HepG2, 10 μM, 7 days
Property: Average ΔΔCt ± SD COXII-rDNA
One number for each entry.

I have 4 compounds here; please give me Average ΔΔCt ± SD COXII-rDNA for each one.
1. Nc1ccn([C@@H]2CS[C@H](CO)O2)c(=O)n1 [Compound 3TC, (−)-β-2′,3′-dideoxy-3′-thiacytidine, reference compound]
2. Nc1ccn([C@@H]2C=C(F)[C@H](CO)O2)c(=O)n1 [Compound 10]
3. Nc1ccn([C@@H]2S[C@H](CO)C=C2F)c(=O)n1
4. Nc1nc(=O)n([C@@H]2S[C@H](CO)C=C2F)cc1F

1: −0.39; 2: −0.21; 3: −0.96; 4: 0.06

====

Test system: rRNA gene
Format: cell-based, human
Details: HepG2, 10 μM, 7 days
Description: Low passage number HepG2 cells, obtained from American Tissue Culture Collection (ATCC, Manassas, Va.) were seeded at 5,000 cells/well in collagen-coated 96-well plates. Test compounds were added to the media to obtain a final concentration of 10 μM. […] In order to study the consequences of possible inhibitory effects of these compounds on host DNA polymerases, nuclear and rnitochondrial DNA levels were quantified and compared to no-treatment controls. […]
With a cut-off of 0.5, any Average ΔCt ± SD rDNA strictly below it is called MET; any Average ΔCt ± SD rDNA meeting it or above is called NOT MET.

Compound	Assigned label
Nc1ccn([C@@H]2CS[C@H](CO)O2)c(=O)n1 [Compound 3TC, (−)-β-2′,3′-dideoxy-3′-thiacytidine, reference compound]	MET
Cc1cn([C@H]2C[C@H](N=[N+]=[N-])[C@@H](CO)O2)c(=O)[nH]c1=O [AZT, 3′-azido-3′-deoxythymidine, reference compound]	NOT MET
Nc1ccn([C@@H]2C=C(F)[C@H](CO)O2)c(=O)n1 [Compound 23]	MET
Nc1ccn(C2CSC(CO)O2)c(=O)n1 (single isomer, unassigned; (+)) [(+)-BCH-189, (+)-β-2′,3′-dideoxy-3′-thiacytidine]	MET
Nc1nc(=O)n([C@@H]2S[C@H](CO)C=C2F)cc1F [Compound D-18]	MET
Nc1ccn([C@@H]2S[C@H](CO)C=C2F)c(=O)n1 [Compound D-17]	NOT MET

Find out if reported Average ΔCt ± SD rDNA for Nc1ccn([C@@H]2C=C(F)[C@H](CO)O2)c(=O)n1 [Compound 10] is less than 0.5
MET

Find out if reported Average ΔCt ± SD rDNA for Nc1nc(=O)n([C@H]2S[C@@H](CO)C=C2F)cc1F [Compound L-18] is less than 0.5
MET

Data origin, for the record: patent US6949522B2
